Reference source: patent US6977262B2

measuredParameter: melting point (°C)

compound: N#CC1=C(c2cc3ccccc3s2)Nc2n[nH]cc2C1c1cccc2nonc12 (stereo not drawn)
measuredParameter: melting point
unitInfo: °C
obsValue: 220

compound: N#CC1=C(C2=CCNCC2)Nc2n[nH]cc2C1c1cccc2nonc12 (stereo not drawn)
measuredParameter: melting point
unitInfo: °C
obsValue: 180

compound: CCCC1=C(C#N)C(c2ccncc2)c2c[nH]nc2N1 (stereo not drawn)
measuredParameter: melting point
unitInfo: °C
obsValue: 224

compound: CCCCC1=C(C(=O)OCC)C(c2cccc3nonc23)c2c[nH]nc2N1 (stereo not drawn)
measuredParameter: melting point
unitInfo: °C
obsValue: 213

compound: CCCC1=C(C#N)[C@H](c2cccc3nonc23)c2c[nH]nc2N1
measuredParameter: melting point
unitInfo: °C
obsValue: 170

compound: CCCCC1=C(C(=O)OCC)C(c2ccccc2OC)c2c[nH]nc2N1 (stereo not drawn)
measuredParameter: melting point
unitInfo: °C
obsValue: 190

compound: CC(C)(C)OC(=O)n1cc(C2=C(C#N)C(c3cccc4nonc34)c3c[nH]nc3N2)c2ccccc21 (stereo not drawn)
measuredParameter: melting point
unitInfo: °C
obsValue: 202

compound: CCCC1=C(C#N)C(c2cccc(C)c2[N+](=O)[O-])c2c[nH]nc2N1 (stereo not drawn)
measuredParameter: melting point
unitInfo: °C
obsValue: 250

compound: CCCC1=C(C(=O)OCC)C(c2ccccc2[N+](=O)[O-])c2c[nH]nc2N1 (stereo not drawn)
measuredParameter: melting point
unitInfo: °C
obsValue: 218

compound: CCOC(=O)C1=C(CC)Nc2n[nH]cc2C1c1ccccc1OC (stereo not drawn)
measuredParameter: melting point
unitInfo: °C
obsValue: 169

compound: N#CC1=C(c2cccs2)Nc2n[nH]cc2C1c1cccc2nonc12 (stereo not drawn)
measuredParameter: melting point
unitInfo: °C
obsValue: 230

compound: N#CC1=C(c2ccccc2)Nc2n[nH]cc2C1c1cccc2nsnc12 (stereo not drawn)
measuredParameter: melting point
unitInfo: °C
obsValue: 258

compound: CCCC1=C([N+](=O)[O-])C(c2cccc3c2OCCC3)c2c[nH]nc2N1 (stereo not drawn)
measuredParameter: melting point
unitInfo: °C
obsValue: 234

compound: COc1ccccc1C1C(C#N)=C(c2ccccc2)Nc2n[nH]cc21 (stereo not drawn)
measuredParameter: melting point
unitInfo: °C
obsValue: 206
